Biological target: RORgT (Homo sapiens)
Construct: Gal4 (fusion partner); expressed in transfected cells; host or cells: engineered Jurkat cells (Jurkat pEx/Gal/hRORγ CLBD/HYG pG5luc/blast)
Sequence (P51449 267-516): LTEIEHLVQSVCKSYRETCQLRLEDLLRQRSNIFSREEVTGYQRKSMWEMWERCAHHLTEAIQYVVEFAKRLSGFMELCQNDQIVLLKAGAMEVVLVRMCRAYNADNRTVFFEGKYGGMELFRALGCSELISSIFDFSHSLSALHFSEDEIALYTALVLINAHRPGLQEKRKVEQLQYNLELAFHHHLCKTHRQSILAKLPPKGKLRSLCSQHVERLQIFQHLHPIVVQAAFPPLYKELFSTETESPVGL
Test: RORgT Gal4 Luciferase Reporter Gene Assay
Format: cell-based
Details: engineered Jurkat cells overexpressing RORgT (LBD or full length) with Gal4 Luc reporter; 18 hours at 37° C.; 40 μM to 0.67 nM; read-out: RORg_GAL4 EC50
Flag rule - EC50 less than 80 nM flags 1 (yes); the remaining entries get 0 (no).

Please check: EC50 for COc1ccc(Oc2c(Cl)ccc(C(=O)NC[C@H]3CC[C@H](C(=O)O)CC3)c2Cl)cc1C(C)C [Example 70] , strictly under 80 nM or not? 0 (no)

Would you kindly repeat that for COc1ccc(Oc2c(Cl)ccc(C(=O)N3CCN(c4ccc(Cl)cc4)CC3)c2Cl)cc1C(C)C [Example 230] ? 0 (no)

Same again, this time with COc1ncc(Oc2c(Cl)cc(NC(=O)CC3CCN(S(C)(=O)=O)CC3)cc2Cl)cc1C(C)(C)F [Example 28] 1 (yes)

Please do the same for COc1ccc(Oc2c(Cl)ccc(C(=O)NC3CCN(Cc4ccccc4)C3)c2Cl)cc1C(C)C (centres unmarked) [Example 193] as well. 0 (no)

// query: COc1ccc(Oc2c(Cl)ccc(C(=O)N3CCC4(CC3)CN(C=O)C4)c2Cl)cc1C(C)C [Example 341] 1 (yes)

Same question, CC(C)c1cc(F)cc(Oc2c(Cl)ccc(C(=O)NC(C)c3ccc(S(C)(=O)=O)cc3)c2Cl)c1 (centres unmarked) [Example 136] this time 1 (yes)

And for CC(C)c1cc(F)cc(Oc2c(Cl)ccc(C(=O)NCC3CCN(S(C)(=O)=O)CC3)c2Cl)c1 [Example 261] ? 1 (yes)

// query: COc1ccc(Oc2c(Cl)cc(N)cc2Cl)cc1C(C)C [Example 350] 0 (no)

* * *

molecular target: RORgT (Homo sapiens); construct: Gal4 (fusion partner); expressed in transfected cells; host or cells: engineered Jurkat cells (Jurkat pEx/Gal/hRORγ CLBD/HYG pG5luc/blast); assay: RORgT Gal4 Luciferase Reporter Gene Assay; format: cell-based; details: engineered Jurkat cells overexpressing RORgT (LBD or full length) with Gal4 Luc reporter; 18 hours at 37° C.; 40 μM to 0.67 nM; read-out: RORg_GAL4 EC50
So basically: is EC50 under 300 nM? Then 1 (yes). Not under? Then 0 (no).

Take the molecule COc1ccc(Oc2c(Cl)cc(NC(=O)CN3CCC[C@H](NS(C)(=O)=O)C3)cc2Cl)cc1C(C)C and say whether its EC50 is less than 300 nM. 1 (yes)

Another molecule: CCS(=O)(=O)N1CCC(CC(=O)Nc2cc(Cl)c(Oc3cnc(OC)c(C(C)C)c3)c(Cl)c2)CC1 1 (yes)

Ok, now COc1ccc(Oc2c(Cl)cc(NC(=O)CC3CCCN(S(C)(=O)=O)C3)cc2Cl)cc1C(C)C (single isomer, unassigned) [Example 43] 1 (yes)

Next up: CC1(c2cc(F)cc(Oc3c(Cl)ccc(C(=O)NCC4CCN(S(C)(=O)=O)CC4)c3Cl)c2)CC1 1 (yes)

// query: COc1ccc(Oc2c(Cl)ccc(C(=O)n3nc(C)cc3CN)c2Cl)cc1C(C)C 1 (yes)

Query CC(C)c1cc(F)cc(Oc2c(Cl)ccc(NC(=O)CC3CCN(S(C)(=O)=O)CC3)c2Cl)c1 next 1 (yes)

Same question, COc1ccc(Oc2c(Cl)cc(NC(=O)OCCS(C)(=O)=O)cc2Cl)cc1C(C)C this time 0 (no)

Moving on to COc1ccc(Oc2c(Cl)ccc(C(=O)NCCC3CCS(=O)(=O)CC3)c2Cl)cc1C(C)C 1 (yes)

Record: COC(=O)CNC(=O)c1ccc(Cl)c(Oc2ccc(OC)c(C(C)C)c2)c1Cl 0 (no)

// same read-out, input: COc1ccc(Oc2c(Cl)cc(NC(=O)C3CC3)cc2Cl)cc1C(C)C 0 (no)

Then COc1ccc(Oc2c(Cl)cc(NC(=O)CN3CC(NS(C)(=O)=O)C3)cc2Cl)cc1C(C)C ? 0 (no)

Next up: COc1ccc(Oc2c(F)cc(NC(=O)Cc3cccnc3)cc2F)cc1CC(C)C 0 (no)

Another: COc1ncc(Oc2c(Cl)cc(NC(=O)CC3CCN(S(C)(=O)=O)CC3)cc2Cl)cc1C(C)C(F)(F)F (stereo not shown) 1 (yes)

Same again, this time with COc1ccc(Oc2c(Cl)ccc(C(=O)N3CCN(C(C)=O)CC3)c2Cl)cc1C(C)C 1 (yes)

Then this molecule: COc1ccc(Oc2c(Cl)ccc(C(=O)N(C)Cc3ccc(S(C)(=O)=O)cc3)c2Cl)cc1C(C)C 1 (yes)

Now this one: COc1ccc(Oc2c(Cl)ccc(C(=O)NC[C@H]3CC[C@H](C(=O)OC)CC3)c2Cl)cc1C(C)C 0 (no)
